Some compounds, each annotated with its measured IC50.
target: His-BIR2-3 (125-356, C202A/C213G, XIAP) (Homo sapiens, UniProt P98170, C202A/C213G); construct: additions of His-BIR2-3 (125-356, C202A/C213G, XIAP), fluorescein labeled dimeric SMAC peptide; experiment: XIAP-BIR2-3 Dimeric SMAC Peptide Homogeneous Time Resolved Fluorescence (HTRF) Assay; assay type: binding; details: fluorescein labeled dimeric SMAC peptide
Sequence (P98170 125-356 C202A/C213G): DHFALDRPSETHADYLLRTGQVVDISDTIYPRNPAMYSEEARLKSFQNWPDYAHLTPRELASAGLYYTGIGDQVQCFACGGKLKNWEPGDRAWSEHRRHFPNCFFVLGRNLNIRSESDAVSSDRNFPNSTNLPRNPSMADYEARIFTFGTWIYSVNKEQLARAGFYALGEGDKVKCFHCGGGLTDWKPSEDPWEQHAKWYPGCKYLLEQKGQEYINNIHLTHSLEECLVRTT
Please state the figure in nM; there is no need to write the unit.

Please review the following examples before continuing.
compound | target-entity | data-value
CC(C)[C@H](NC(=O)[C@H](C)N(C)C(=O)OC(C)(C)C)C(=O)N[C@H]1C/C=C/CC[C@@H](C(=O)O)NC(=O)[C@H](Cc2ccccc2)NC(=O)[C@@H]2CN(CCNC(=O)CC[C@@H](C(=O)OC(C)(C)C)NC(=O)[C@H](Cc3ccccc3)NC1=O)CCN2C(=O)[C@@H](NC(=O)[C@H](C)N(C)C(=O)OC(C)(C)C)C(C)C | His-BIR2-3 (125-356, C202A/C213G, XIAP) (Homo sapiens, UniProt P98170, C202A/C213G) | 2090
CN[C@@H](C)C(=O)N[C@H](C(=O)N1C[C@@H]2C[C@H]1C(=O)N[C@@H](Cc1ccc3ccccc3c1)C(=O)N[C@H](C(=O)O)Cc1ccc(cc1)OCc1cn(nn1)[C@H]1C[C@@H](C(=O)N[C@@H](Cc3ccc4ccccc4c3)C(=O)N[C@H](c3nnn[nH]3)Cc3ccc(cc3)OCCCCO2)N(C(=O)[C@@H](NC(=O)[C@H](C)NC)C(C)(C)C)C1)C(C)(C)C | His-BIR2-3 (125-356, C202A/C213G, XIAP) (Homo sapiens, UniProt P98170, C202A/C213G) | 3.3
CN[C@@H](C)C(=O)N[C@H](C(=O)N1C[C@@H]2C[C@H]1C(=O)NC(Cc1ccc3ccccc3c1)C(=O)N[C@H](C(=O)O)CCCCOC/C=C/C[C@H]1C[C@@H](C(=O)N[C@@H](Cc3ccc4ccccc4c3)C(=O)N[C@H](C(=O)O)Cc3ccc(cc3)OCc3cn2nn3)N(C(=O)[C@@H](NC(=O)[C@H](C)NC)C(C)(C)C)C1)C(C)(C)C (stereo partly drawn) | His-BIR2-3 (125-356, C202A/C213G, XIAP) (Homo sapiens, UniProt P98170, C202A/C213G) | 1
CN[C@@H](C)C(=O)N[C@H](C(=O)N1C[C@H]2C/C=C/COc3ccc(cc3)C[C@@H](C(=O)NS(=O)(=O)C3CC3)NC(=O)[C@H](Cc3ccc4ccccc4c3)NC(=O)[C@@H]3C[C@H](C/C=C/COc4ccc(cc4)C[C@@H](C(=O)O)NC(=O)[C@H](Cc4ccc5ccccc5c4)NC(=O)[C@@H]1C2)CN3C(=O)[C@@H](NC(=O)[C@H](C)NC)C(C)(C)C)C(C)(C)C | His-BIR2-3 (125-356, C202A/C213G, XIAP) (Homo sapiens, UniProt P98170, C202A/C213G) | 1.7
CN[C@@H](C)C(=O)N[C@@H](CC(=O)O)C(=O)N1C[C@@H]2C[C@H]1C(=O)N[C@@H](Cc1ccc3ccccc3c1)C(=O)N[C@H](C(=O)O)Cc1ccc(cc1)C(=O)N[C@H]1C[C@@H](C(=O)N[C@@H](Cc3ccc4ccccc4c3)C(=O)N[C@H](C(=O)O)Cc3ccc(cc3)OC/C=C/CO2)N(C(=O)[C@@H](NC(=O)[C@H](C)NC)C(C)(C)C)C1 | His-BIR2-3 (125-356, C202A/C213G, XIAP) (Homo sapiens, UniProt P98170, C202A/C213G) | 5.9

[ask] I have this compound here, `CN[C@@H](C)C(=O)N[C@H](C(=O)N1C[C@@H]2C[C@H]1C(=O)N[C@@H](Cc1ccc3ccccc3c1)C(=O)N[C@H](C(=O)O)Cc1ccc(cc1)OC/C=C/CO[C@H]1C[C@@H](C(=O)N3Cc4ccccc4C[C@H]3C(=O)N[C@H](C(=O)NS(=O)(=O)C3CC3)Cc3ccc(cc3)OCc3cn2nn3)N(C(=O)[C@@H](NC(=O)[C@H](C)NC)C(C)(C)C)C1)C(C)(C)C` , and I need its recorded IC50.
[reply] 13.2
